Tested on: NCI-H2009
protocol text: relative viability (nuclei count vs DMSO), 5 days (fraction); higher = more cells survive
protocol conditions: first compound 0.2 µM
# Criterion met = relative viability below 0.8 (exclusive); Criterion not met = relative viability at/above 0.8

Example entries and their recorded answers appear below.
1) COCC1(CO)C(=O)C2CCN1CC2 (stereo not given) [PRIMA-1MET] + CC(C)C[C@H](NC(=O)[C@H](Cc1ccccc1)NC(=O)c1cnccn1)B(O)O [Bortezomib] (partner 0.002 µM) | Criterion met
2) COCC1(CO)C(=O)C2CCN1CC2 (stereo not given) [PRIMA-1MET] + O=C(CCCCCCC(=O)Nc1ccccc1)NO [Vorinostat] (partner 1 µM) | Criterion met
3) COCC1(CO)C(=O)C2CCN1CC2 (stereo not given) [PRIMA-1MET] + Nc1nc2[nH]cc(CCc3ccc(C(=O)N[C@@H](CCC(=O)O)C(=O)O)cc3)c2c(=O)[nH]1 [Pemetrexed] (partner 0.2 µM) | Criterion not met
4) COCC1(CO)C(=O)C2CCN1CC2 (stereo not given) [PRIMA-1MET] + C[C@@H](Oc1cc(-c2cnn(C3CCNCC3)c2)cnc1N)c1c(Cl)ccc(F)c1Cl [Crizotinib] (partner 1 µM) | Criterion not met

Consider now this further molecule.
Query: Decide: relative viability of COCC1(CO)C(=O)C2CCN1CC2 (stereo not given) [PRIMA-1MET] + CC(=O)c1c(C)c2cnc(Nc3ccc(N4CCNCC4)cn3)nc2n(C2CCCC2)c1=O [Palbociclib] (partner 0.5 µM) strictly below 0.8?
Response: Criterion met

====

Below, each of the molecules is paired with its reported relative viability value.
Tested on: NCI-H1915
protocol text: relative viability (nuclei count vs DMSO), 5 days (fraction); higher = more cells survive
protocol conditions: first compound 0.3162 µM

Examples from the recorded data:
1) CCN(CC)CCCCNc1ncc2cc(-c3cc(OC)cc(OC)c3)c(NC(=O)NC(C)(C)C)nc2n1 + CC(C)C[C@H](NC(=O)[C@H](Cc1ccccc1)NC(=O)c1cnccn1)B(O)O [Bortezomib] (partner 0.002 µM) | 1.09
2) CCN(CC)CCCCNc1ncc2cc(-c3cc(OC)cc(OC)c3)c(NC(=O)NC(C)(C)C)nc2n1 + Nc1nc2[nH]cc(CCc3ccc(C(=O)N[C@@H](CCC(=O)O)C(=O)O)cc3)c2c(=O)[nH]1 [Pemetrexed] (partner 0.2 µM) | 0.518
3) O=c1cc(N2CCOCC2)oc2c(-c3cccc4c3sc3ccccc34)cccc12 + Cc1nc(Nc2ncc(C(=O)Nc3c(C)cccc3Cl)s2)cc(N2CCN(CCO)CC2)n1 [Dasatinib] (partner 0.075 µM) | 0.321

Query: Identify the reported relative viability for the following entry. O=c1cc(N2CCOCC2)oc2c(-c3cccc4c3sc3ccccc34)cccc12 + COc1cc2c(Oc3ccc(NC(=O)C4(C(=O)Nc5ccc(F)cc5)CC4)cc3F)ccnc2cc1OCCCN1CCOCC1 [Foretinib] (partner 0.25 µM)
Response: 1.11

====

Tested on: HCC-44
protocol text: relative viability (nuclei count vs DMSO), 5 days (fraction); higher = more cells survive
protocol conditions: first compound 1 µM
measurement kind: relative viability
Lab note: jot the number down without any unit.

Query: Return the recorded relative viability value; entry: CCN(CC)CCCCNc1ncc2cc(-c3cc(OC)cc(OC)c3)c(NC(=O)NC(C)(C)C)nc2n1 + C[C@@H](Oc1cc(-c2cnn(C3CCNCC3)c2)cnc1N)c1c(Cl)ccc(F)c1Cl [Crizotinib] (partner 1 µM)
Response: 0.946

Query: Complete the entry with relative viability for CCN(CC)CCCCNc1ncc2cc(-c3cc(OC)cc(OC)c3)c(NC(=O)NC(C)(C)C)nc2n1 + Nc1nc2[nH]cc(CCc3ccc(C(=O)N[C@@H](CCC(=O)O)C(=O)O)cc3)c2c(=O)[nH]1 [Pemetrexed] (partner 0.2 µM)
Response: 0.721

Query: Give me measured relative viability, please, for this compound: CCN(CC)CCCCNc1ncc2cc(-c3cc(OC)cc(OC)c3)c(NC(=O)NC(C)(C)C)nc2n1 + Cc1cc(Nc2cc(N3CCN(C)CC3)nc(Sc3ccc(NC(=O)C4CC4)cc3)n2)n[nH]1 [Tozasertib] (partner 0.1 µM)
Response: 0.85

====

Tested on: NCI-H2085
protocol text: relative viability (nuclei count vs DMSO), 5 days (fraction); higher = more cells survive
protocol conditions: first compound 0.253 µM
Note that class boundaries on relative viability are interval 1 (below 0.5), interval 2 (0.5 to below 0.8), interval 3 (0.8 or more)

Query: Which bin should I file O=c1cc(-c2cccc3c2Sc2ccccc2S3)oc(N2CCOCC2)c1 + Nc1ncn([C@H]2C[C@H](O)[C@@H](CO)O2)c(=O)n1 [Decitabine] (partner 2 µM) under?
Response: interval 2

Query: GET /class?item= O=c1cc(-c2cccc3c2Sc2ccccc2S3)oc(N2CCOCC2)c1 + CCNC(=O)c1noc(-c2cc(C(C)C)c(O)cc2O)c1-c1ccc(CN2CCOCC2)cc1 [Luminespib] (partner 0.01 µM)
Response: interval 2

Query: State the class of the compound shown: COc1nc(C)cnc1NS(=O)(=O)c1cccnc1-c1ccc(-c2nnco2)cc1 [Zibotentan] + CC(=O)Nc1cccc(-n2c(=O)n(C3CC3)c(=O)c3c(Nc4ccc(I)cc4F)n(C)c(=O)c(C)c32)c1 [Trametinib] (partner 0.02 µM)
Response: interval 1

====

System: NCI-H838
protocol text: relative viability (nuclei count vs DMSO), 5 days (fraction); higher = more cells survive
protocol conditions: first compound 0.3162 µM
Some compounds, each annotated with its measured relative viability.
Just the number, please, no unit after it.

Recorded relative viability, per entry:
1. CCN(CC)CCCCNc1ncc2cc(-c3cc(OC)cc(OC)c3)c(NC(=O)NC(C)(C)C)nc2n1 + COc1cc2c(Oc3ccc(NC(=O)C4(C(=O)Nc5ccc(F)cc5)CC4)cc3F)ccnc2cc1OCCCN1CCOCC1 [Foretinib] (partner 0.25 µM) | 0.986
2. CCN(CC)CCCCNc1ncc2cc(-c3cc(OC)cc(OC)c3)c(NC(=O)NC(C)(C)C)nc2n1 + NC(=O)Nc1cc(-c2cccc(F)c2)sc1C(=O)N[C@H]1CCCNC1 [AZD7762] (partner 0.2 µM) | 1.1
3. CCN(CC)CCCCNc1ncc2cc(-c3cc(OC)cc(OC)c3)c(NC(=O)NC(C)(C)C)nc2n1 + Nc1nc2[nH]cc(CCc3ccc(C(=O)N[C@@H](CCC(=O)O)C(=O)O)cc3)c2c(=O)[nH]1 [Pemetrexed] (partner 0.2 µM) | 0.234

Query: Quickly give me recorded relative viability for O=c1cc(N2CCOCC2)oc2c(-c3cccc4c3sc3ccccc34)cccc12 + Nc1nc2[nH]cc(CCc3ccc(C(=O)N[C@@H](CCC(=O)O)C(=O)O)cc3)c2c(=O)[nH]1 [Pemetrexed] (partner 0.2 µM)
Response: 0.227

Query: Item O=c1cc(N2CCOCC2)oc2c(-c3cccc4c3sc3ccccc34)cccc12 + C[C@@H](Oc1cc(-c2cnn(C3CCNCC3)c2)cnc1N)c1c(Cl)ccc(F)c1Cl [Crizotinib] (partner 1 µM) : provide relative viability
Response: 0.744

====

Here the recorded relative viability is given for each entry.
Test system: PC-14
protocol text: relative viability (nuclei count vs DMSO), 5 days (fraction); higher = more cells survive
protocol conditions: first compound 20 µM
Lab note: write the figure by itself, no unit.

These recorded examples may help you get a feel for the data.
1. COCC1(CO)C(=O)C2CCN1CC2 (centres undefined) [PRIMA-1MET] + C[C@@H](Oc1cc(-c2cnn(C3CCNCC3)c2)cnc1N)c1c(Cl)ccc(F)c1Cl [Crizotinib] (partner 1 µM) | 1
2. COCC1(CO)C(=O)C2CCN1CC2 (centres undefined) [PRIMA-1MET] + Cc1nc(Nc2ncc(C(=O)Nc3c(C)cccc3Cl)s2)cc(N2CCN(CCO)CC2)n1 [Dasatinib] (partner 0.075 µM) | 0.0176
3. COCC1(CO)C(=O)C2CCN1CC2 (centres undefined) [PRIMA-1MET] + C[C@]1(O)C[C@@H](c2nc(-c3ccc4ccc(-c5ccccc5)nc4c3)c3c(N)nccn32)C1 [Linsitinib] (partner 1 µM) | 0.927

Shifting focus to the compound that follows.
Query: Would you please give the reported relative viability of COCC1(CO)C(=O)C2CCN1CC2 (centres undefined) [PRIMA-1MET] + CC(C)C[C@H](NC(=O)[C@H](Cc1ccccc1)NC(=O)c1cnccn1)B(O)O [Bortezomib] (partner 0.002 µM) with PC-14?
Response: 0.884

====

System: LOU-NH91
protocol text: relative viability (nuclei count vs DMSO), 5 days (fraction); higher = more cells survive
protocol conditions: first compound 20 µM
Entries and their measured relative viability follow.
No unit in the answer, please; the number alone is enough.

1) COCC1(CO)C(=O)C2CCN1CC2 (stereo not given) [PRIMA-1MET] + Cc1cc(Nc2cc(N3CCN(C)CC3)nc(Sc3ccc(NC(=O)C4CC4)cc3)n2)n[nH]1 [Tozasertib] (partner 0.1 µM) | 0.427
2) COCC1(CO)C(=O)C2CCN1CC2 (stereo not given) [PRIMA-1MET] + N=C(N)NC(=N)NCCc1ccccc1 [Phenformin] (partner 250 µM) | 0.392
3) COCC1(CO)C(=O)C2CCN1CC2 (stereo not given) [PRIMA-1MET] + CS(=O)(=O)CCNCc1ccc(-c2ccc3ncnc(Nc4ccc(OCc5cccc(F)c5)c(Cl)c4)c3c2)o1 [Lapatinib] (partner 2 µM) | 0.496

Query: Determine from records and report relative viability for COCC1(CO)C(=O)C2CCN1CC2 (stereo not given) [PRIMA-1MET] + O=C(c1cc(Cc2n[nH]c(=O)c3ccccc23)ccc1F)N1CCN(C(=O)C2CC2)CC1 [Olaparib] (partner 8 µM)
Response: 0.65

Query: Tell me relative viability reported for COCC1(CO)C(=O)C2CCN1CC2 (stereo not given) [PRIMA-1MET] + C[C@@H](Oc1cc(-c2cnn(C3CCNCC3)c2)cnc1N)c1c(Cl)ccc(F)c1Cl [Crizotinib] (partner 1 µM)
Response: 0.681
